src = patent US20240025862A1

System: Setaria viridis (SETVI)
experimentNotes: Post-emergence herbicidal action, greenhouse pot test (also comparative test C)
Assay type: in vivo
runParameters: Setaria viridis, 504 h, 20 g/ha, read-out: Post-emergence action against SETVI
Below, each of the molecules is paired with its reported pest or weed control at 20 g/ha value.
Provide the reading as a plain figure in %.

// worked examples, pest or weed control at 20 g/ha included
| molecule | recordedResult |
| --- | --- |
| Cn1c(C(F)(F)F)cc(=O)n(-c2cc(Oc3ccccc3OCC(=O)OCC[N+](=O)[O-])c(Cl)cc2F)c1=O [I.7-183] | 100 |
| Cn1c(C(F)(F)F)cc(=O)n(-c2cc(Oc3ccccc3OCC(=O)OCC3CCCO3)c(Cl)cc2F)c1=O (stereo not drawn) [I.7-71] | 100 |
| Cn1c(C(F)(F)F)cc(=O)n(-c2cc(Oc3ccccc3OCC(=O)OCC#N)c(Br)cc2F)c1=O [I.8-176] | 100 |
| CC(C#N)OC(=O)COc1ccccc1Oc1cc(-n2c(=O)cc(C(F)(F)F)n(C)c2=O)c(F)cc1Cl (stereo not drawn) [I.7-177] | 100 |

QUERY: # get_value(readout='pest or weed control at 20 g/ha', item= Cn1c(C(F)(F)F)cc(=O)n(-c2cc(Oc3ccccc3OCC(=O)OCC#N)c(Cl)cc2F)c1=O [I.7-176] )
RESULT: 100

QUERY: Next record, please: Cn1c(C(F)(F)F)cc(=O)n(-c2cc(Oc3ccccc3OCC(=O)OCc3ccccn3)c(Cl)cc2F)c1=O [I.7-276]
RESULT: 100
